Conditions: male, human, in vivo, t max (median), Before FRG, healthy male subjects, plasma, before fermented red ginseng
MEASURE NAME: Tmax (h)
Quick note: give the figure in h, leave out the unit.

Per the records, this compound ( Cn1c(=O)c2c(ncn2C)n(C)c1=O ) has Tmax equal to 0.5

Consider CCCCc1nc(Cl)c(C(=O)O)n1Cc1ccc(-c2ccccc2-c2nn[nH]n2)cc1 . Its measured Tmax is 3

Consider CCCCc1nc(Cl)c(CO)n1Cc1ccc(-c2ccccc2-c2nn[nH]n2)cc1 . Its measured Tmax is 1.5

---

Would you kindly list AUCinf, geometric mean ratio, After FRG: Before FRG (90% CI) for each of these compounds?
Details: healthy male subjects, plasma

AUCinf, geometric mean ratio, After FRG: Before FRG (90% CI) recorded for this compound, Cc1ncc2n1-c1ccc(Cl)cc1C(c1ccccc1F)=NC2 [Midazolam, midazolam] , is 1.138 (1.007–1.285)

OCc1ncc2n1-c1ccc(Cl)cc1C(c1ccccc1F)=NC2 [1‐hydroxymidazolam] yielded AUCinf, geometric mean ratio, After FRG: Before FRG (90% CI) of 0.924 (0.791–1.080)

Looking up COc1ccc2c(c1)[C@]13CCCC[C@@H]1[C@H](C2)N(C)CC3 [Dextromethorphan, dextromethorphan] , I see its AUCinf, geometric mean ratio, After FRG: Before FRG (90% CI) listed as 0.869 (0.638–1.184)

The compound listed as CN1CC[C@@]23CCCC[C@@H]2[C@@H]1Cc1ccc(O)cc13 [Dextrorphan, dextrorphan] shows AUCinf, geometric mean ratio, After FRG: Before FRG (90% CI) equal to 1.042 (0.932–1.164)

The value of AUCinf, geometric mean ratio, After FRG: Before FRG (90% CI) measured for the compound Cn1c(=O)[nH]c2ncn(C)c2c1=O [Paraxanthine, paraxanthine] turned out to be 1.432 (1.125–1.823)

Entry under test: CCCCc1nc(Cl)c(C(=O)O)n1Cc1ccc(-c2ccccc2-c2nn[nH]n2)cc1 [EXP3174] . Its AUCinf, geometric mean ratio, After FRG: Before FRG (90% CI) was 0.813 (0.687–0.963)

---

Kindly state AUCinf, geometric mean ratio, After FRG: Before FRG (90% CI) for each of the entries shown.
Conditions: healthy male subjects, plasma

Entry under test: CCCCc1nc(Cl)c(CO)n1Cc1ccc(-c2ccccc2-c2nn[nH]n2)cc1 [Losartan, losartan] . Its AUCinf, geometric mean ratio, After FRG: Before FRG (90% CI) was 1.047 (0.887–1.237)

Lab book: AUCinf, geometric mean ratio, After FRG: Before FRG (90% CI) of Cn1c(=O)c2c(ncn2C)n(C)c1=O [Caffeine, caffeine] noted as 1.165 (1.002–1.356)

The compound listed as COc1ccc2nc([S+]([O-])Cc3ncc(CO)c(OC)c3C)[nH]c2c1 (stereo not shown) [5‐hydroxyomeprazole] has a reported AUCinf, geometric mean ratio, After FRG: Before FRG (90% CI) of 1.050 (0.961–1.147)

The compound identified as COc1ccc2[nH]c([S+]([O-])Cc3ncc(C)c(OC)c3C)nc2c1 (stereo not shown) [Omeprazole, omeprazole] registered its AUCinf, geometric mean ratio, After FRG: Before FRG (90% CI) at 0.936 (0.819–1.069)

---

Conditions: healthy male subjects, plasma, before fermented red ginseng
MEASURE NAME: t max (median), Before FRG (h)
Just the number please, in h, no unit attached.

Looking up CN1CC[C@@]23CCCC[C@@H]2[C@@H]1Cc1ccc(O)cc13 , I found its t max (median), Before FRG recorded as 2.000

// field: t max (median), Before FRG; key: COc1ccc2[nH]c([S+]([O-])Cc3ncc(C)c(OC)c3C)nc2c1 (stereo not shown) ; value = 2.000

So, OCc1ncc2n1-c1ccc(Cl)cc1C(c1ccccc1F)=NC2 [1‐hydroxymidazolam] ? Its t max (median), Before FRG was 0.500

Measured t max (median), Before FRG of COc1ccc2nc([S+]([O-])Cc3ncc(CO)c(OC)c3C)[nH]c2c1 (stereo not shown) [5‐hydroxyomeprazole] : 3.000
